Values compiled from paper PMC7887755.

# reported MIC; entries follow
tested on: Mtb H37Rv; test: microbe, parasite or virus in culture; format: cell-based, Mycobacterium tuberculosis; conditions: Mycobacterium tuberculosis, H37RV; read-out: MIC in 7H9 ADC
# number only, unit µM dropped from output

O=c1cc(-c2ccc(F)c(F)c2)[nH]c2c(-c3ccc(Cl)cc3)cnn12 | 12.5
Nc1nn2c(=O)cc(-c3ccccc3)[nH]c2c1-c1ccccc1 | 28.1
Cc1nn2c(=O)c(C(F)(F)F)c(-c3ccccc3)[nH]c2c1-c1ccccc1 | 12.5
O=c1cc(-c2ccccc2)[nH]c2c(-c3ccccc3)cnn12 | 12.5

Ask: Please report MIC for the following compound: Cc1nn2c(=O)cc(-c3ccc(F)c(F)c3)[nH]c2c1-c1ccc(Cl)cc1
Result: 1.95

Ask: Supply recorded MIC for Cc1nn2c(=O)cc(-c3ccccc3)[nH]c2c1-c1ccccc1 here.
Result: 12.5

Ask: Dear colleague, please send me the reported MIC for Cc1nn2c(=O)cc(Cc3ccccc3)[nH]c2c1-c1ccccc1 when you can.
Result: 75

Ask: Identify measured MIC corresponding to Cc1nn2c(=O)c(C)c(-c3ccccc3)[nH]c2c1-c1ccccc1
Result: 43.8

Ask: Please indicate MIC recorded for COc1cc(-c2ccccc2)nc2c(-c3ccccc3)c(C)nn12 [Compound P1]
Result: 100

Ask: Complete the entry with MIC for Cc1nn2c(=O)cc(-c3ccc(Cl)c(Cl)c3)[nH]c2c1-c1ccccc1
Result: 2.34
